These measurements were taken from ChEMBL document CHEMBL1641396.

Assay read-out pKi; system under study: Cannabinoid receptor 2 (Homo sapiens, UniProt P34972).
Sequence (P34972 whole entry): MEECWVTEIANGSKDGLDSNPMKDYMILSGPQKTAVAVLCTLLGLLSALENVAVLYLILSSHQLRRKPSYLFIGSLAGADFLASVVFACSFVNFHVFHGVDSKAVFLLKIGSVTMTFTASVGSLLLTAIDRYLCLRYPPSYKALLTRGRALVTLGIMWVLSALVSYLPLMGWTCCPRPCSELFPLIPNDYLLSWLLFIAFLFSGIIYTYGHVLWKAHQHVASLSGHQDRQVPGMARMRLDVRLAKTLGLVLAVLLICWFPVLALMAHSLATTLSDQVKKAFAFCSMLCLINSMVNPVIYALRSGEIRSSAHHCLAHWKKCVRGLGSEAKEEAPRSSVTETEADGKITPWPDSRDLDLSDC
pKi: −log10 of the molar value.

{"STRUCTURE_STRING": "CCCCCn1cc(C(=O)NC23CC4CC(CC(C4)C2)C3)c(=S)cc1-c1ccccc1", "pKi": 7.73}
{"STRUCTURE_STRING": "CCCC(C)(C)c1ccc2c(c1)OC(C)(C)[C@@H]1CC=C(O)C[C@@H]21", "pKi": 7.69}
{"STRUCTURE_STRING": "CCCCCn1cc(C(=O)NC23CC4CC(CC(C4)C2)C3)c(=O)cc1-c1ccc(OC)cc1", "pKi": 7.04}
